- assay info: Cytotoxicity against human GES1 cells assessed as cell viability incubated for 48 hrs by MTT assay
- Assay type: toxicity, cell-based
recorded metric: GI50 at 48 h (µM)

compound=Nc1ccc(Oc2ccc(NC(=O)Nc3cccc(F)c3)cc2)cn1 measurement_qualifier=> value_observed=100
compound=Nc1ccc(Oc2cccc(NC(=O)Nc3ccccc3F)c2)cn1 measurement_qualifier== value_observed=43.6
compound=Nc1ccc(Oc2ccc(NC(=O)Nc3cccc(Cl)c3Cl)cc2)cn1 measurement_qualifier=> value_observed=100
compound=Nc1ccc(Oc2cccc(NC(=O)Nc3ccc(F)cc3)c2)cn1 measurement_qualifier=> value_observed=100
compound=Nc1ccc(Oc2cccc(NC(=O)Nc3cccc(Br)c3)c2)cn1 measurement_qualifier=> value_observed=100
compound=Nc1ccc(Oc2ccc(NC(=O)Nc3cccc(Cl)c3)cc2)cn1 measurement_qualifier== value_observed=65.5
compound=Cc1cccc(NC(=O)Nc2ccc(Oc3ccc(N)nc3)cc2)c1 measurement_qualifier=> value_observed=100
compound=COc1cccc(NC(=O)Nc2ccc(Oc3ccc(N)nc3)cc2)c1 measurement_qualifier== value_observed=43.2
compound=Cc1ccc(NC(=O)Nc2cccc(Oc3ccc(N)nc3)c2)cc1Cl measurement_qualifier=> value_observed=100
compound=Cc1ccc(NC(=O)Nc2ccc(Oc3cnc4[nH]ccc4c3)cc2)cc1C(F)(F)F measurement_qualifier== value_observed=24
compound=Cc1ccc(NC(=O)Nc2cccc(Oc3ccc(N)nc3)c2)cc1 measurement_qualifier=> value_observed=100
compound=Nc1ccc(Oc2ccc(NC(=O)Nc3cccc(C(F)(F)F)c3)cc2)cn1 measurement_qualifier== value_observed=62.7
compound=Cc1cccc(NC(=O)Nc2cccc(Oc3ccc(N)nc3)c2)c1 measurement_qualifier=> value_observed=100
compound=Nc1ccc(Oc2cccc(NC(=O)Nc3ccc(F)c(C(F)(F)F)c3)c2)cn1 measurement_qualifier== value_observed=39.1
compound=CC(=O)Nc1ccc(Oc2ccc(NC(=O)Nc3cccc(C(F)(F)F)c3)cc2)cn1 measurement_qualifier== value_observed=28.2
compound=Nc1ccc(Oc2ccc(NC(=O)Nc3ccc(Cl)c(C(F)(F)F)c3)cc2)cn1 measurement_qualifier== value_observed=26.8
compound=Nc1ccc(Oc2cccc(NC(=O)Nc3cccc(Cl)c3)c2)cn1 measurement_qualifier=> value_observed=100
compound=Nc1ccc(Oc2ccc(NC(=O)Nc3cccc(Br)c3)cc2)cn1 measurement_qualifier=> value_observed=100
compound=Nc1ccc(Sc2ccc(NC(=O)Nc3cccc(C(F)(F)F)c3)cc2)cn1 measurement_qualifier=> value_observed=100
compound=Nc1ccc(Oc2cccc(NC(=O)Nc3cccc(C(F)(F)F)c3)c2)cn1 measurement_qualifier=> value_observed=100
compound="CNC(=O)c1cc(Oc2ccc(NC(=O)Nc3ccc(Cl)c(C(F)(F)F)c3)cc2)ccn1 [SORAFENIB]" measurement_qualifier== value_observed=28.9
compound=Nc1ccc(Oc2cccc(NC(=O)Nc3ccc(F)c(Cl)c3)c2)cn1 measurement_qualifier== value_observed=31.3
